subject of test: B2-receptors in h-CM cells (Homo sapiens)
Construct: B2-receptor proteins in h-TM, h-CM and h-NPE cells; endogenous in cells; host or cells: human trabecular meshwork (h-TM), human ciliary muscle (h-CM) and human non-pigmented ciliary epithelial (h-NPE) cells
Sequence (P30411 whole entry): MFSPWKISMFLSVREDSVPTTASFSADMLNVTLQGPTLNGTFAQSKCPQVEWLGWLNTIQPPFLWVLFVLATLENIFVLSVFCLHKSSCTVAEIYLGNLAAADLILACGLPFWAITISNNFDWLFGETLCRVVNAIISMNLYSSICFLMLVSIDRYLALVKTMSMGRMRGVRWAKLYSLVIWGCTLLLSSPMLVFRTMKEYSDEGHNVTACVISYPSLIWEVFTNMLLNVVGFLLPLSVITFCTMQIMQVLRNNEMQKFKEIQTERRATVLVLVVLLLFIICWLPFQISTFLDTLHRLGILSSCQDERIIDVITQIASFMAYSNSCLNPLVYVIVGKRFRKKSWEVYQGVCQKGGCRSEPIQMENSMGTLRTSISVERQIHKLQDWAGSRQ
measurement protocol: [Ca2+]i mobilization (FLIPR) in h-CM cells, agonist mode
Assay type: cell-based
settings: h-CM cells; mean ± SEM; read-out: Intrinsic Activity (Emax, % max relative to BK)
recorded endpoint: Emax (%)
Express the result in % but write the number alone.

Cc1cc(OCc2ccccn2)c2cccc(OCc3c(Cl)ccc(N(C)C(=O)CNC(=O)/C=C/c4ccc(/C=C/c5ccncc5)nc4)c3Cl)c2n1	96
N=C(N)NCCC[C@H](N)C(=O)N1CCC[C@H]1C(=O)N1CCC[C@H]1C(=O)NCC(=O)N[C@@H](Cc1ccccc1)C(=O)N[C@@H](CO)C(=O)N1CCC[C@H]1C(=O)N[C@@H](Cc1ccccc1)C(=O)O	94
CSCC[C@H](N)C(=O)N[C@@H](CCCCN)C(=O)N[C@@H](CCCNC(=N)N)C(=O)N1CCC[C@H]1C(=O)N1CCC[C@H]1C(=O)NCC(=O)N[C@@H](Cc1ccccc1)C(=O)N[C@@H](CO)C(=O)N1CCC[C@H]1C(=O)N[C@@H](Cc1ccccc1)C(=O)N[C@@H](CCCNC(=N)N)C(=O)O	110
CNC(=O)c1ccc(/C=C/C(=O)NCC(=O)N(C)c2ccc(Cl)c(COc3cccc4c(OCc5ccccn5)cc(C)nc34)c2Cl)cc1	63

// moving on: another record for Emax
Request: What does the record list as Emax for "N=C(N)NCCC[C@H](NC(=O)[C@H](Cc1ccccc1)NC(=O)[C@@H]1CCCN1C(=O)[C@H](CO)NC(=O)[C@H](Cc1ccccc1)NC(=O)CNC(=O)[C@@H]1CCCN1C(=O)[C@@H]1CCCN1C(=O)[C@H](CCCNC(=N)N)NC(=O)[C@@H](N)CCCCN)C(=O)O" ?
Response: 115

* * *

Entries and their measured EC50 follow.
subject of test: B2-receptors in h-TM cells (Homo sapiens, UniProt P30411)
Construct: B2-receptor proteins in h-TM, h-CM and h-NPE cells; endogenous in cells; host or cells: human trabecular meshwork (h-TM), human ciliary muscle (h-CM) and human non-pigmented ciliary epithelial (h-NPE) cells
measurement protocol: [Ca2+]i mobilization (FLIPR) in h-TM cells, agonist mode
Assay type: cell-based
settings: h-TM cells; mean ± SEM; read-out: Potency (EC50), [Ca2+]i mobilization
Description: On the day of the experiment, one vial of FLIPR Calcium Assay Kit dye is re-suspended in 50 mL of a FLIPR buffer consisting of Hank's Balanced Salt Solution (HBSS), 20 mM HEPES, and 2.5 mM probenecid, pH 7.4. […] At the beginning of an experimental run, a signal test is performed to check the basal fluorescence signal from the dye-loaded cells and the uniformity of the signal across the plate. […]
Express the result in nM but write the number alone.

CNC(=O)c1ccc(/C=C/C(=O)NCC(=O)N(C)c2ccc(Cl)c(COc3cccc4c(OCc5ccccn5)cc(C)nc34)c2Cl)cc1 [FR-190997]	167

// moving on: another record for EC50
Request: What does the record list as EC50 for Cc1cc(OCc2ccccn2)c2cccc(OCc3c(Cl)ccc(N(C)C(=O)CNC(=O)/C=C/c4ccc(/C=C/c5ccncc5)nc4)c3Cl)c2n1 [Compound 1] ?
Response: 290
